Please consider the recorded IC50 for UniProtKB O75116 in what follows.

CC(C)(C)OC(=O)NCC1CN(c2ccc(-c3n[nH]c(=O)c4ccccc34)cc2)C(=O)O1 (stereo not shown) | 500 to 2000 nM
CC(C)c1cc(NC2CCN(c3ccc(-c4n[nH]c(=O)c5ccccc45)cc3)C2=O)n(C)n1 (stereo not shown) | 10 to 100 nM
O=C1C(Nc2ccc3c(c2)OCCO3)CCN1c1ccc(-c2n[nH]c(=O)c3ccccc23)cc1 (stereo not shown) | 10 to 100 nM

# next compound below
If you can, please state the reported IC50 value of CC(c1ccccc1)n1cnn(-c2ccc(-c3n[nH]c(=O)c4ccccc34)cc2)c1=O (stereo not shown) .
500 to 2000 nM

---

# assayTarget: UniProtKB O75116
pIC50: −log10 of the molar value.
measurementType: pIC50

Example molecules with recorded pIC50:
N#Cc1ccnc(NC2CCN(c3ccc(-c4n[nH]c(=O)c5ccccc45)cc3)C2=O)c1 (centres unmarked) | 7.00 to 8.00
COc1cc(OC2CCN(c3ccc(-c4n[nH]c(=O)c5ccccc45)cc3)C2=O)ccc1F (centres unmarked) | 7.00 to 8.00
CCc1ccccc1NC1CCN(c2ccc(-c3n[nH]c(=O)c4ccccc34)cc2)C1=O (centres unmarked) | 7.00 to 8.00
O=C1C(N2CCOCC2)CCN1c1ccc(-c2n[nH]c(=O)c3ccccc23)cc1 (centres unmarked) | 5.70 to 6.30

# next molecule below
If you can, please state the reported pIC50 value of O=C1OC(Cc2ccccc2)CN1c1ccc(-c2n[nH]c(=O)c3ccccc23)cc1 (centres unmarked) .
7.00 to 8.00

---

# assayTarget: ROCK2 (Homo sapiens, UniProt O75116)
# Sequence (O75116 whole entry, species assumed): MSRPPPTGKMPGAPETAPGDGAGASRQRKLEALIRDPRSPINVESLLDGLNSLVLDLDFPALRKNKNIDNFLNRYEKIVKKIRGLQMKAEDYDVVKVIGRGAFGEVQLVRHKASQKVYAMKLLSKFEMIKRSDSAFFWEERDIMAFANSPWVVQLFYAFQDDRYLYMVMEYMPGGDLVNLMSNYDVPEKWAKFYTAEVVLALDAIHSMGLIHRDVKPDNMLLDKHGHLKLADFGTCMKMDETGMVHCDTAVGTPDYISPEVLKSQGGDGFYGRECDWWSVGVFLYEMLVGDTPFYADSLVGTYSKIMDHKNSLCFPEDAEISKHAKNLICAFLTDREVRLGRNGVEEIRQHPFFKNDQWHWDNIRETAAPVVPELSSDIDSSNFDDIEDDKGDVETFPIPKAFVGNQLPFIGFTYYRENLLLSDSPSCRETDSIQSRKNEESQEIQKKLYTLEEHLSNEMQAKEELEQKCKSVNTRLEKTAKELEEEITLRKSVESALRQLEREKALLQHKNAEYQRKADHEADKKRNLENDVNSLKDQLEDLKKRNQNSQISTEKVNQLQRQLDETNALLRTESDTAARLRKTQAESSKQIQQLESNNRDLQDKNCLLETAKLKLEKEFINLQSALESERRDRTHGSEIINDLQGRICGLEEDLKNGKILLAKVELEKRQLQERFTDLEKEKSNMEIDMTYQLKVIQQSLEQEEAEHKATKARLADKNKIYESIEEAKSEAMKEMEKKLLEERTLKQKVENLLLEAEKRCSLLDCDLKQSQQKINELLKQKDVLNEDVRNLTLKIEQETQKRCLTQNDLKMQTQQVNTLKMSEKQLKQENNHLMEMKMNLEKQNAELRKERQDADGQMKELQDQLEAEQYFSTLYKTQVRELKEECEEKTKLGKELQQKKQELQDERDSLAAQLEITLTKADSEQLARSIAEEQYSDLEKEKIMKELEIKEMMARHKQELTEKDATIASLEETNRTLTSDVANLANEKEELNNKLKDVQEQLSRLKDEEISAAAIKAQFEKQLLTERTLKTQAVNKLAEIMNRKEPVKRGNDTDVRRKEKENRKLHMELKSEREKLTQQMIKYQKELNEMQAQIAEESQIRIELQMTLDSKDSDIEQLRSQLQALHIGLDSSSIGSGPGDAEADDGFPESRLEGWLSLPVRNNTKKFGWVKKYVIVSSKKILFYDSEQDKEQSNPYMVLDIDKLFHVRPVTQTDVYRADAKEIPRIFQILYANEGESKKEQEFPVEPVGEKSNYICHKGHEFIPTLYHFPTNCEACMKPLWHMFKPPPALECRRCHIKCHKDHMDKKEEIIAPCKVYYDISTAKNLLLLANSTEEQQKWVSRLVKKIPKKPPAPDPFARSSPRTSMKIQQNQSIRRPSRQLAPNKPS
pIC50: −log10 of the molar value.
measurementType: pIC50

Example compounds with recorded pIC50:
O=C1N(c2ccc(-c3n[nH]c(=O)c4ccccc34)cc2)CCN1c1cccnc1 | 7.00 to 8.00
CSc1cccc(NC2CCN(c3ccc(-c4n[nH]c(=O)c5ccccc45)cc3)C2=O)c1 (stereo not shown) | 7.00 to 8.00
CCOc1cccc(NC2CCN(c3ccc(-c4n[nH]c(=O)c5ccccc45)cc3)C2=O)c1 (stereo not shown) | 7.00 to 8.00

If you can, please state the reported pIC50 value of N#Cc1cnc(NC2CCN(c3ccc(-c4n[nH]c(=O)c5ccccc45)cc3)C2=O)s1 (stereo not shown) .
6.30 to 7.00

Repeat for the following compound: O=C1C(Nc2cccc(OC(F)F)c2)CCN1c1ccc(-c2n[nH]c(=O)c3ccccc23)cc1 (single isomer, unassigned) [Example 55]
7.00 to 8.00

Repeat for the following compound: COc1ccccc1NC1CCN(c2ccc(-c3n[nH]c(=O)c4ccccc34)cc2)C1=O (stereo not shown)
7.00 to 8.00

---

Please consider the recorded IC50 for ROCK2 (Homo sapiens, UniProt O75116) in what follows.

Example compounds with recorded IC50:
COc1cccc(Cn2cnn(-c3ccc(-c4n[nH]c(=O)c5ccccc45)cc3)c2=O)c1 | 100 to 500 nM
O=C1C(Nc2cccc(OC(F)F)c2)CCN1c1ccc(-c2n[nH]c(=O)c3ccccc23)cc1 (single isomer, unassigned) [Example 56] | < 10 nM
COc1cc(F)cc(NC2CCN(c3ccc(-c4n[nH]c(=O)c5ccccc45)cc3)C2=O)c1 (stereo not drawn) | 10 to 100 nM
O=C1C(Oc2cccc(OC(F)(F)F)c2)CCN1c1ccc(-c2n[nH]c(=O)c3ccccc23)cc1 (single isomer, unassigned) | < 10 nM
O=C1C(Nc2cccc(OC(F)F)c2)CCN1c1ccc(-c2c[nH]c(=O)c3ccccc23)cc1 (racemic) | < 10 nM
COc1cccc([C@@H](C)NC2CCN(c3ccc(-c4n[nH]c(=O)c5ccccc45)cc3)C2=O)c1 (stereo partly drawn) | 500 to 2000 nM
O=C1C(NC2CCCC2)CCN1c1ccc(-c2n[nH]c(=O)c3ccccc23)cc1 (stereo not drawn) | 500 to 2000 nM
C[C@@H]1OC(=O)N(c2ccc(-c3n[nH]c(=O)c4ccccc34)cc2)[C@@H]1c1ccccc1 | 500 to 2000 nM
O=C1C(Nc2cccc(OC(F)(F)F)c2)CCN1c1ccc(-c2n[nH]c(=O)c3ccccc23)cc1 (stereo not drawn) | < 10 nM
O=C1C(C(=O)N2CCc3ccccc32)CCN1c1ccc(-c2n[nH]c(=O)c3ccccc23)cc1 (stereo not drawn) | 500 to 2000 nM

# query: IC50 | item "O=c1[nH]nc(-c2ccc(-n3ncn(Cc4cccc(OC(F)F)c4)c3=O)cc2)c2ccccc12" | system: ROCK2 (Homo sapiens, UniProt O75116)
100 to 500 nM

Repeat for the following compound: O=C1COc2cc(NC3CCN(c4ccc(-c5n[nH]c(=O)c6ccccc56)cc4)C3=O)ccc2N1 (single isomer, unassigned)
10 to 100 nM

Repeat for the following compound: CC(C)Oc1cccc(NC2CCN(c3ccc(-c4n[nH]c(=O)c5ccccc45)cc3)C2=O)c1 (stereo not drawn)
10 to 100 nM

Repeat for the following compound: O=C1OC2CCCCC2N1c1ccc(-c2n[nH]c(=O)c3ccccc23)cc1 (stereo not drawn)
500 to 2000 nM

Repeat for the following compound: O=C1C(NCc2ccccc2)CCN1c1ccc(-c2n[nH]c(=O)c3ccccc23)cc1 (stereo not drawn)
500 to 2000 nM
